B1: E3 ubiquitin-protein ligase NEDD4-like, residues 539 to 589; numbered along this chain, Q96PU5 (parent)
chain: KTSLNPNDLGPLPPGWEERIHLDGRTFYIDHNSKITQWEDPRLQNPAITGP

- Variants of: B1
- protocol-text: abundance fitness (aPCA) (normalised: wild type 0, dead -1); higher = more abundant; growth selection in yeast, the domain comes from the species named
- conditions-used: Homo sapiens
quantity: abundance fitness
Lab note: jot the number down without any unit.

Challenge: Tell me measured abundance fitness for `H31A` please.
Response given: -0.174

Challenge: Tell me measured abundance fitness for `S33L` please.
Response given: -0.188

Challenge: Tell me measured abundance fitness for `L22G` please.
Response given: 0.085

Challenge: Tell me measured abundance fitness for `W16G` please.
Response given: -0.223

Challenge: Tell me measured abundance fitness for `N7T` please.
Response given: -0.007

Challenge: Tell me measured abundance fitness for `L4V` please.
Response given: -0.139

Challenge: Tell me measured abundance fitness for `E39Q` please.
Response given: -0.362

Challenge: Tell me measured abundance fitness for `Q37E` please.
Response given: -0.742

Challenge: Tell me measured abundance fitness for `G24Q` please.
Response given: -0.705

Challenge: Tell me measured abundance fitness for `L12Q` please.
Response given: -0.773

Challenge: Tell me measured abundance fitness for `I29S` please.
Response given: -0.318

Challenge: Tell me measured abundance fitness for `P14V` please.
Response given: -0.122

Challenge: Tell me measured abundance fitness for `G10D` please.
Response given: -0.24

Challenge: Tell me measured abundance fitness for `D40Y` please.
Response given: -0.53

Challenge: Tell me measured abundance fitness for `A47N` please.
Response given: 0.011

Challenge: Tell me measured abundance fitness for `K1I` please.
Response given: -0.062

Challenge: Tell me measured abundance fitness for `E17Q` please.
Response given: -0.361

Challenge: Tell me measured abundance fitness for `D8H` please.
Response given: -0.194

Challenge: Tell me measured abundance fitness for `I20F` please.
Response given: -0.246

Challenge: Tell me measured abundance fitness for `E18M` please.
Response given: -0.444

Challenge: Tell me measured abundance fitness for `L43P` please.
Response given: -0.089

Challenge: Tell me measured abundance fitness for `R19E` please.
Response given: -0.192
